- System: SK-MEL-28
- methodNotes: NCI tumour cell line growth inhibition, 48 h
The source made the active and inactive calls. No stated cut-off is given here; in the data, active = GI50 up to about 1.1 µM and inactive = higher. Where a SMILES comes first, the peptide text is derived from it. [ ]: non-standard residue; d: D form. The star is where a group is joined. Phe(2-OMe) = COc1ccccc1C[CH](N)C(=O)O; Cbz = O=C(OCc1ccccc1)*; OBn = c1ccc(CO*)cc1
Labels: active, inactive

molecule: Cc1cc(OC(=O)Nc2ccc(Cl)cc2)ccc1C(=S)Nc1ccccc1
group: inactive
--
molecule: N#Cc1c2c(c(N3CCOCC3)n3c1nc1ccccc13)CCCC2
group: inactive
--
molecule: CCC(=O)Nc1ccc(NCC(=O)Nc2ccc(Cl)cc2)cc1
group: inactive
--
molecule: CN(C)CCNc1ccc2c(=O)n(CCN(C)C)c(=O)n3c4ccc(O)cc4c(=O)c1c23
group: active
--
molecule: O=C1Cc2c([nH]c3ccccc23)-c2cc(Br)ccc2N1
group: inactive
--
molecule: CN(C)c1ccc(/C=N/NC(=O)c2cnc3ccccc3c2)cc1
group: inactive
--
molecule: COc1cc(C(=O)O[C@@H]2[C@@H](OC(=O)c3cc(OC)c(OC)c(OC)c3)[C@@H](OC)O[C@@H]3CO[C@@H](c4ccccc4)O[C@@H]23)cc(OC)c1OC
group: inactive
--
molecule: COC(=O)C(Cc1ccccc1OC)NC(=O)C(CC(=O)OCc1ccccc1)NC(=O)OCc1ccccc1 (stereo not drawn) (Cbz-Asp(OBn)-[Phe(2-OMe)]-OMe; configuration not given here)
group: inactive
